In this section we review reported inhibition values for a set of compounds.
# target-desc: Integrin alpha-4 (Homo sapiens) (UniProt P13612)
# Sequence (P13612 whole entry, looked up): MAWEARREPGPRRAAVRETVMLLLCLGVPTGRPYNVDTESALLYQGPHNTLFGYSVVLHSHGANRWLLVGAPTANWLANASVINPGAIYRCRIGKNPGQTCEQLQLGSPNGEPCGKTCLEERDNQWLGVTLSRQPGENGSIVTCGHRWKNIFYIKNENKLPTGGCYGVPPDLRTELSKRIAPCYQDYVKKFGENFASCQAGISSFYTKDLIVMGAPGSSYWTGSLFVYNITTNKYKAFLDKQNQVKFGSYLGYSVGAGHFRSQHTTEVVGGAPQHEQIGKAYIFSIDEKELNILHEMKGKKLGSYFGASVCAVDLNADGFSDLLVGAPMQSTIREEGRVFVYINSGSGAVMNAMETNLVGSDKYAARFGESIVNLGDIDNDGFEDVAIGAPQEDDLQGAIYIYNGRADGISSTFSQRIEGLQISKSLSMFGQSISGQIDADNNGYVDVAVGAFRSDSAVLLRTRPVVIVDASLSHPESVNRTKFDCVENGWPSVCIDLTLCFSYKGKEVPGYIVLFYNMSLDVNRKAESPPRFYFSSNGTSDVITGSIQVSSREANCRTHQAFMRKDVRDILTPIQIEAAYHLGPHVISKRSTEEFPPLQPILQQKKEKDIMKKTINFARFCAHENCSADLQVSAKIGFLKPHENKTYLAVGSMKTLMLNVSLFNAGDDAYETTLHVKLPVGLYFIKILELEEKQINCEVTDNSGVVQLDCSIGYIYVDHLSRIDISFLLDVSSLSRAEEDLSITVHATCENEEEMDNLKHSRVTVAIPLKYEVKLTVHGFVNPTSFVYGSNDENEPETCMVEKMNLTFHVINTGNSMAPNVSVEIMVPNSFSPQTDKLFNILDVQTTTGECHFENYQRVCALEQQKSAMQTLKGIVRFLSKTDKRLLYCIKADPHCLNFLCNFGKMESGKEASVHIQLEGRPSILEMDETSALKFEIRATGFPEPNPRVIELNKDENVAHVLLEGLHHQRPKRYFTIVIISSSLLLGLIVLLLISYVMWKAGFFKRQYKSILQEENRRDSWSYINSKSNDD
# measurement-notes: blockers of LDV-FITC ligand binding on VLA-4 – Jurkat cells, Mn2+ activated, primary screen (AID 529);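 note: 0% = Mn2+ stimulated cells lacking compound and 100% = ligand binding without Mn2+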
# condition: LDV-FITC binding with Mn2+, flow cytometry, hits give high values, 100% = Mn2+-driven binding gain fully reversed, screened at 10 µM (by protocol)
The whole screen tested about 24,000 compounds, of which about 50 (0.2%) were called active. Not shown: some 9% with an inconclusive outcome. What follows is part of a selection rich in actives, with near analogues and random picks from the rest.
metric-name: inhibition (%)

compound: CCCCNC(=O)c1c[nH]c2ccc(S(=O)(=O)Nc3ccc(OCC)cc3)cc2c1=O
target-desc: Integrin alpha-4 (Homo sapiens) (UniProt P13612)
metric-name: inhibition
units-of-measure: %
value-measured: -22.5
//
compound: CCOc1ccc(C2C(C(=O)O)c3ccccc3C(=O)N2CCN2CCOCC2)cc1 (configuration not stated)
target-desc: Integrin alpha-4 (Homo sapiens) (UniProt P13612)
metric-name: inhibition
units-of-measure: %
value-measured: -12.1
//
compound: O=C(C(Cc1ccccc1)n1cccc1)N1CCN(C2CCCCC2)CC1 (configuration not stated)
target-desc: Integrin alpha-4 (Homo sapiens) (UniProt P13612)
metric-name: inhibition
units-of-measure: %
value-measured: 15
//
compound: CCOc1c(OC)cc(C2C(C#N)=C(N)Oc3n[nH]c(-c4ccncc4)c32)cc1OC (configuration not stated)
target-desc: Integrin alpha-4 (Homo sapiens) (UniProt P13612)
metric-name: inhibition
units-of-measure: %
value-measured: -15
//
compound: Cc1ccc(-n2nc3c(c2NC(=O)c2ccc4c(c2)OCO4)CSC3)c(C)c1
target-desc: Integrin alpha-4 (Homo sapiens) (UniProt P13612)
metric-name: inhibition
units-of-measure: %
value-measured: 13
//
compound: Cc1nc(C)c2c(c1C(F)(F)F)-c1ccccc1C2(F)F
target-desc: Integrin alpha-4 (Homo sapiens) (UniProt P13612)
metric-name: inhibition
units-of-measure: %
value-measured: -6.5
//
compound: CCCCOC(=O)NCN1C(=O)C2C3C=CC(C3)C2C1=O (configuration not stated)
target-desc: Integrin alpha-4 (Homo sapiens) (UniProt P13612)
metric-name: inhibition
units-of-measure: %
value-measured: -15
//
compound: CCOc1ccc(CNC(=O)C2CC(=O)N(C3CCCC3)C2)cc1OC (configuration not stated)
target-desc: Integrin alpha-4 (Homo sapiens) (UniProt P13612)
metric-name: inhibition
units-of-measure: %
value-measured: 28
//
compound: COc1ccc(C2OC(=O)CC2C(=O)NC(C)C)cc1 (configuration not stated)
target-desc: Integrin alpha-4 (Homo sapiens) (UniProt P13612)
metric-name: inhibition
units-of-measure: %
value-measured: 6
//
compound: CCOC(=O)N1CCC(C(N)=O)CC1
target-desc: Integrin alpha-4 (Homo sapiens) (UniProt P13612)
metric-name: inhibition
units-of-measure: %
value-measured: -7
//
compound: O=C(CCn1c(=O)oc2ccccc21)Nc1ccon1
target-desc: Integrin alpha-4 (Homo sapiens) (UniProt P13612)
metric-name: inhibition
units-of-measure: %
value-measured: -16
//
compound: CCOC(=O)C1(C(F)(F)F)N=C(N(C)C)OC(N(C)C)=N1
target-desc: Integrin alpha-4 (Homo sapiens) (UniProt P13612)
metric-name: inhibition
units-of-measure: %
value-measured: 20
//
compound: Cc1ccc(C2CC(=O)NC(SCC(=O)OCc3ccccc3)=C2C#N)o1 (configuration not stated)
target-desc: Integrin alpha-4 (Homo sapiens) (UniProt P13612)
metric-name: inhibition
units-of-measure: %
value-measured: -24
//
compound: O=C(CSc1nc2ncccc2[nH]1)Nc1ccc2c(c1)OCCO2
target-desc: Integrin alpha-4 (Homo sapiens) (UniProt P13612)
metric-name: inhibition
units-of-measure: %
value-measured: -23
//
compound: COc1ccccc1-n1cnc2cc(C(=O)NCC3CCCO3)ccc21 (configuration not stated)
target-desc: Integrin alpha-4 (Homo sapiens) (UniProt P13612)
metric-name: inhibition
units-of-measure: %
value-measured: -11
//
compound: Cc1cccc(N2CCN(S(=O)(=O)c3ccc4c(c3)c(=O)n(C)c(=O)n4C)CC2C)c1 (configuration not stated)
target-desc: Integrin alpha-4 (Homo sapiens) (UniProt P13612)
metric-name: inhibition
units-of-measure: %
value-measured: -4
//
compound: CCOC(=O)C1CCN(C(=O)CC2C(=O)N(Cc3ccccc3)C(C)c3nc4ccccc4n32)CC1 (configuration not stated)
target-desc: Integrin alpha-4 (Homo sapiens) (UniProt P13612)
metric-name: inhibition
units-of-measure: %
value-measured: 8
//
compound: O=C1c2ccncc2C(=O)N1C1CCCCC1
target-desc: Integrin alpha-4 (Homo sapiens) (UniProt P13612)
metric-name: inhibition
units-of-measure: %
value-measured: 3
//
compound: Cc1cccc(CSc2nnc(Cn3c(=O)sc4ccccc43)n2C)c1
target-desc: Integrin alpha-4 (Homo sapiens) (UniProt P13612)
metric-name: inhibition
units-of-measure: %
value-measured: 2
//
compound: O=C(c1ccc2c(c1)N(Cc1ccc(F)cc1)C(=O)CS2)N1CCOCC1
target-desc: Integrin alpha-4 (Homo sapiens) (UniProt P13612)
metric-name: inhibition
units-of-measure: %
value-measured: -5
//
compound: Cc1nc2ncnn2c(C)c1CCC(=O)N1CCN(C(=O)c2ccco2)CC1
target-desc: Integrin alpha-4 (Homo sapiens) (UniProt P13612)
metric-name: inhibition
units-of-measure: %
value-measured: 10
//
compound: COc1cccc(C(CC(=O)NCCN2CCOCC2)NS(=O)(=O)c2ccc(C)cc2)c1OC (configuration not stated)
target-desc: Integrin alpha-4 (Homo sapiens) (UniProt P13612)
metric-name: inhibition
units-of-measure: %
value-measured: -2
